Biological target: T1, Human CD19-his protein (human, UniProt P15391 20-291)
T1 construct: bought protein; also called human CD19 protein; recombinant human CD19-His; not shown: His tag
T1 sequence (looked up): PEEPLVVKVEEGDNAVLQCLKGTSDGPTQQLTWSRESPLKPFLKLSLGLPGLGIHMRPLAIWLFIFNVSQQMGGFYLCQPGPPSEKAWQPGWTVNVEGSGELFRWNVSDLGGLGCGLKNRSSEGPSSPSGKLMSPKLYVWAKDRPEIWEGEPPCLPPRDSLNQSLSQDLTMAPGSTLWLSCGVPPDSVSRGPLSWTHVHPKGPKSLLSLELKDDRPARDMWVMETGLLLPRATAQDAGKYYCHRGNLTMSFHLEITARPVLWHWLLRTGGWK
Test: ELISA, antibody at 0.10 nM
Assay readout: OD450
No unit in the answer, only the number.

See these solved cases before continuing.
F3.5.1 (antibody, human IgG1, V domains shown, human-murine chimeric antibody, human IgG1) VH: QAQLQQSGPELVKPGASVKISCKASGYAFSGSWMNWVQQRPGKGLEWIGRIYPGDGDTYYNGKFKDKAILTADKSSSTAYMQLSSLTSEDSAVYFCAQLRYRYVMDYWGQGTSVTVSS VL: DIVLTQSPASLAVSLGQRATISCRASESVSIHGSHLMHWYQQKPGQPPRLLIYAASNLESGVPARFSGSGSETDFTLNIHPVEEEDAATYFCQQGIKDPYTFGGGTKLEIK :: 0.5
F3.124.7 (antibody, human IgG1, V domains shown, human-murine chimeric antibody, human IgG1) VH: EVQLQQSGPVLVKPGASVKMSCKASGYTFTDYYMNWVKQRHGKSLEWIGISNPYNGGTSYNQKFKDKATLTVDKSSSTAYMELNSLTSEDSAVYYCAREGGTAQPTSGMDYWGQGTSVTVSS VL: NIMMTQSPSSLAVSAGEKVTMSCKSSQSVLYSSNQKNYLAWYQQKPGQSPKLLIYWASTRESGVPDRFTGSGSGTDFTLTISSVQPEDPAVYYCHQYRSSYTFGGGTKLEIK :: 2.08

Exercise: Tell me the measured OD450 of F1-mab003 (antibody, human IgG1, V domains shown, human-murine chimeric antibody, human IgG1) VH: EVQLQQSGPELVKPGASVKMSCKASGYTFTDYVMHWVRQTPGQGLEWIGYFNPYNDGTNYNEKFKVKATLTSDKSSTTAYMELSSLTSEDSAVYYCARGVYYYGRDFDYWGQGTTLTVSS VL: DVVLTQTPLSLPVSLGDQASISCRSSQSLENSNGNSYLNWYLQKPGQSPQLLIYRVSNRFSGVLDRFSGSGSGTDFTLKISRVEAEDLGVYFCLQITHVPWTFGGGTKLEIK , please.
Solution: 1.09

Exercise: Now this one: F4.37.6 (antibody, human IgG1, V domains shown, human-murine chimeric antibody, human IgG1) VH: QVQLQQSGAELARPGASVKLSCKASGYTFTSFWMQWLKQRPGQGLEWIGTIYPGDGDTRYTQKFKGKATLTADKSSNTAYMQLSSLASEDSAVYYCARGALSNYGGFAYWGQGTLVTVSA VL: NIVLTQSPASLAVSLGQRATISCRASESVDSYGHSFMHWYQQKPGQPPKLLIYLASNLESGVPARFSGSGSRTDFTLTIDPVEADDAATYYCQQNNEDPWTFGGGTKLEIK
Solution: 0.6

Exercise: Now this one: F4.276.12 (antibody, human IgG1, V domains shown, human-murine chimeric antibody, human IgG1) VH: EIQLQQSGPELVKPGASVKVSCKASGYAFSAYNMYWVKQSHGKSLEWIGYIDPYNGGTNYNQKFKGKATLTVDKSSSTAYMHLNSLTSEDSAVYYCARDGYEVTYWGQGTLVTVSA VL: QIVLTQSPALMSASLGEEITLTCSASSSVTYMHWSQQKSGTSPRLLIYSTSNLASGVPSRFSGSGSGTFYSLTISSVEAEDAADYYCHQWSSYPWTFGGGTKLEIK
Solution: 0.4

Measured values drawn from patent US20250042994A1 for this set.
